Reported values of IC50 for individual entries
# Assayed Target: full-length human CSNK1A1 (Homo sapiens, UniProt P48729)
# Construct: N-terminal Glutathion-S-Transferase (GST) and full-length human CSNK1A1; purchased Life Technologies PV4174; host or cells: baculovirus infected insect cells
# Sequence (P48729 whole entry): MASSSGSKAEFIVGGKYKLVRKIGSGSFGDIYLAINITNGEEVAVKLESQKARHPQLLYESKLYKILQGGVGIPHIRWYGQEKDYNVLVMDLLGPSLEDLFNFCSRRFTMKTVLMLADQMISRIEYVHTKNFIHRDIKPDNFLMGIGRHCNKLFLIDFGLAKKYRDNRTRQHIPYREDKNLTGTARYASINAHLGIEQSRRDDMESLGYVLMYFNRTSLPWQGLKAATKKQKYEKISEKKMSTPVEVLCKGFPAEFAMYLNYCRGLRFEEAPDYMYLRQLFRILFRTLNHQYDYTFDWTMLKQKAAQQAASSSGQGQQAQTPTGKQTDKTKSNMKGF
# Test Description: CSNK1A1 Assay 2 (ADP-Glo, 1 μM ATP, substrate biotin-Ahx-KRRRAL-pS-VASLPGL)
# Assay type: biochemical
# Condition Set: Table 3, read-out: CSNK1A1 Assay 2 IC50 [mol/l] (median)
Observed Property: IC50 (nM)

* O=C(Nc1cc(-c2[nH]c3cncnc3c2-c2ccccn2)ccn1)C(CC(F)F)c1ccc(F)cc1 (single isomer, unassigned; (+)) [Example 15] | 1.32
* O=C(Nc1cc(-c2[nH]c3c(OCC4CCCO4)cc(F)nc3c2-c2ccccn2)ccn1)C(CC(F)F)c1ccc(F)cc1 (racemic) [Example 61] | 11.1
* O=C(Nc1cc(-c2[nH]c3ccc(F)nc3c2-c2ccc(F)cn2)ccn1)C(CC(F)F)c1ccc(F)cc1 (single isomer, unassigned; (+)) [Example 109] | 3.14
* O=C(Nc1cc(-c2[nH]c3c(OCC(F)F)ncnc3c2-c2ccccn2)ccn1)C(CC(F)F)c1ccc(F)cc1 (single isomer, unassigned) [Example 79] | 3.1
* Cc1cc2[nH]c(-c3ccnc(NC(=O)C(CC(F)F)c4ccc(F)cc4)c3)c(-c3ccccn3)c2nc1F (single isomer, unassigned) [Example 35] | 2.69

----------
# Assayed Target: full-length human CSNK1A1 (Homo sapiens)
# Construct: N-terminal Glutathion-S-Transferase (GST) and full-length human CSNK1A1; purchased Life Technologies PV4174; host or cells: baculovirus infected insect cells
# Test Description: CSNK1A1 High ATP Assay (ADP-Glo, 1 mM ATP);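 note: 30 min kinase reaction at 22 °C with 100 µM peptide substrate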
# Format: biochemical
# Condition Set: Table 3, read-out: CSNK1A1 high ATP assay IC50 [mol/l] (median)
pIC50: −log10 of the molar value.
Rule: pIC50 of 7 or more gives yes; anything lower gives no.

* COCCOc1cc(F)nc2c(-c3ccccn3)c(-c3ccnc(NC(=O)C(CC(F)F)c4ccc(F)cc4)c3)[nH]c12 (single isomer, unassigned) [Example 91] | yes
* O=C(Nc1cc(-c2[nH]c3c(OCC(F)F)ncnc3c2-c2ccccn2)ccn1)C(CC(F)F)c1ccc(F)cc1 (single isomer, unassigned) [Example 80] | yes
* O=C(Nc1cc(-c2[nH]c3c(OC4CC4)cc(F)nc3c2-c2ccccn2)ccn1)C(CC(F)F)c1ccc(F)cc1 (racemic) [Example 42] | yes
* O=C(Nc1cc(-c2[nH]c3ccc(F)nc3c2-c2ccc(F)cn2)ccn1)C(CC(F)F)c1ccc(F)cc1 (stereo not drawn) [Example 108] | yes
* O=C(Nc1cc(-c2[nH]c3c(OC4CC4)cc(F)nc3c2-c2ccccn2)ccn1)C(CC(F)F)c1ccc(F)cc1 (single isomer, unassigned) [Example 43] | yes
* O=C(Nc1cc(-c2[nH]c3c(C4CCCO4)cc(F)nc3c2-c2ccccn2)ccn1)C(CC(F)F)c1ccc(F)cc1 (single isomer, unassigned) [Example 117] | no
* Cc1ccc2[nH]c(-c3ccnc(NC(=O)C(CC(F)F)c4ccc(F)cc4)c3)c(-c3ccccn3)c2n1 (single isomer, unassigned) [Example 6] | no
* O=C(Nc1cc(-c2[nH]c3c(OCC4CC4)ncnc3c2-c2ccccn2)ccn1)C(CC(F)F)c1ccc(F)cc1 (racemic) [Example 128] | yes
* O=C(Nc1cc(-c2[nH]c3c(OC4CC4)cc(F)nc3c2-c2ccccn2)ccn1)C(CC(F)F)c1ccc(F)cc1 (single isomer, unassigned) [Example 44] | yes
* O=C(Nc1cc(-c2[nH]c3c(O[C@H]4CCOC4)ncnc3c2-c2ccccn2)ccn1)C(CC(F)F)c1ccc(F)cc1 (single isomer, unassigned) [Example 74] | yes
* O=C(Nc1cc(-c2[nH]c3cc(F)cnc3c2-c2ccccn2)ccn1)C(CC(F)F)c1ccc(F)cc1 (single isomer, unassigned; (-)) [Example 18] | no
* O=C(Nc1cc(-c2[nH]c3c(OCC(F)F)cc(F)nc3c2-c2ccccn2)ccn1)C(CC(F)F)c1ccc(F)cc1 (racemic) [Example 28] | yes
* O=C(Nc1cc(-c2[nH]c3nccnc3c2-c2ccccn2)ccn1)C(CC(F)(F)F)c1ccc(F)cc1 (single isomer, unassigned) [Example 120] | yes
* O=C(Nc1cc(-c2[nH]c3ccc(F)nc3c2-c2ccc(F)cn2)ccn1)C(CC(F)F)c1ccc(F)cc1 (single isomer, unassigned; (-)) [Example 110] | yes
* O=C(Nc1cc(-c2[nH]c3c(C4CCCO4)cc(F)nc3c2-c2ccccn2)ccn1)C(CC(F)F)c1ccc(F)cc1 (single isomer, unassigned) [Example 118] | no

----------
Entries and their pIC50
# Assayed Target: full-length human CSNK1D (Homo sapiens)
pIC50: −log10 of the molar value.
Observed Property: pIC50

• O=C(Nc1cc(-c2[nH]c3c(C4CCCO4)cc(F)nc3c2-c2ccccn2)ccn1)C(CC(F)F)c1ccc(F)cc1 (single isomer, unassigned) [Example 118] = 6.90
• O=C(Nc1cc(-c2[nH]c3c(O[C@H]4CCOC4)ncnc3c2-c2ccccn2)ccn1)C(CC(F)F)c1ccc(F)cc1 (single isomer, unassigned) [Example 73] = 8.40
• Cc1cc(F)nc2c(-c3ccccn3)c(-c3ccnc(NC(=O)C(CC(F)F)c4ccc(F)cc4)c3)[nH]c12 (racemic) [Example 36] = 7.38
• O=C(Nc1cc(-c2[nH]c3nc(OC(F)F)cnc3c2-c2ccccn2)ccn1)C(CC(F)F)c1ccc(F)cc1 (stereo not shown) [Example 105] = 7.91

----------
Parameter 'readout' = IC50; parameter 'system' = full-length human CSNK1D (Homo sapiens, UniProt P48730).
Sequence (P48730 whole entry): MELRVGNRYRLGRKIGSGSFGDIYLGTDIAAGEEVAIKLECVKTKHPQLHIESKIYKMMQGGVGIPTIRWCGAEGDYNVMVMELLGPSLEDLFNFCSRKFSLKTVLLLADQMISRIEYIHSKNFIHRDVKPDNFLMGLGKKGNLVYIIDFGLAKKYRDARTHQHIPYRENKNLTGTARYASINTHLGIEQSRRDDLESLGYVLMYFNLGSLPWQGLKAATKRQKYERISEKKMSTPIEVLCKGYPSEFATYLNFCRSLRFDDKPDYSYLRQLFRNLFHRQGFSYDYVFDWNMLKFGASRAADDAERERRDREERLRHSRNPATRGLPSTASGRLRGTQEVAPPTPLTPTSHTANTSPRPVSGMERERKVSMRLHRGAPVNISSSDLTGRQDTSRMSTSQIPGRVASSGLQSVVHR
Observed Property: IC50 (nM)

• O=C(Nc1cc(-c2[nH]c3nc(OC(F)F)cnc3c2-c2ccccn2)ccn1)C(CC(F)F)c1ccc(F)cc1 (single isomer, unassigned) [Example 107] = 117
• O=C(Nc1cc(-c2[nH]c3cc(F)cnc3c2-c2ccccn2)ccn1)C(CC(F)F)c1ccc(F)cc1 (single isomer, unassigned; (+)) [Example 17] = 3.16
• O=C(Nc1cc(-c2[nH]c3c(OCC(F)(F)F)ncnc3c2-c2ccccn2)ccn1)C(CC(F)F)c1ccc(F)cc1 (racemic) [Example 122] = 7.04
• O=C(Nc1cc(-c2[nH]c3ccc(F)nc3c2-c2ccc(F)cn2)ccn1)C(CC(F)F)c1ccc(F)cc1 (single isomer, unassigned; (+)) [Example 109] = 3.41
• COc1cnc2c(-c3ccccn3)c(-c3ccnc(NC(=O)C(CC(F)F)c4ccc(F)cc4)c3)[nH]c2c1 (stereo not drawn) [Example 81] = 5.85
• Cc1cnc2c(-c3ccccn3)c(-c3ccnc(NC(=O)C(CC(F)F)c4ccc(F)cc4)c3)[nH]c2c1 (single isomer, unassigned) [Example 8] = 4.01
• O=C(Nc1cc(-c2[nH]c3cccnc3c2-c2cccc(F)n2)ccn1)C(CC(F)F)c1ccc(F)cc1 (single isomer, unassigned; (+)) [Example 27] = 4.05
• O=C(Nc1cc(-c2[nH]c3c(OC[C@@H]4COCCO4)cc(F)nc3c2-c2ccccn2)ccn1)C(CC(F)F)c1ccc(F)cc1 (single isomer, unassigned) [Example 59] = 19.6
• O=C(Nc1cc(-c2[nH]c3nccnc3c2-c2ccccn2)ccn1)[C@@H](CC(F)F)c1ccc(F)cc1 (single isomer, unassigned) = 4.55
• O=C(Nc1cc(-c2[nH]c3ccc(F)nc3c2-c2ccccn2)ccn1)[C@H](CC(F)F)c1ccc(F)cc1 (single isomer, unassigned) = 20.1
• O=C(Nc1cc(-c2[nH]c3c(OCC(F)(F)F)ncnc3c2-c2ccccn2)ccn1)C(CC(F)(F)F)c1ccc(F)cc1 (single isomer, unassigned) [Example 126] = 7.84
• Cc1ccc2[nH]c(-c3ccnc(NC(=O)C(CC(F)F)c4ccc(F)cc4)c3)c(-c3ccccn3)c2n1 (single isomer, unassigned) [Example 6] = 89.7
• O=C(Nc1cc(-c2[nH]c3nc(F)cnc3c2-c2ccccn2)ccn1)C(CC(F)F)c1ccc(F)cc1 (racemic) = 12.5
• COc1cnc2c(-c3ccccn3)c(-c3ccnc(NC(=O)C(CC(F)F)c4ccc(F)cc4)c3)[nH]c2c1 (single isomer, unassigned) [Example 83] = 35.3
• O=C(Nc1cc(-c2[nH]c3c(N4CCOCC4)cc(F)nc3c2-c2ccccn2)ccn1)C(CC(F)F)c1ccc(F)cc1 (racemic) = 9.76

----------
# Assayed Target: full-length human CSNK1A1 (Homo sapiens, UniProt P48729)
# Construct: N-terminal Glutathion-S-Transferase (GST) and full-length human CSNK1A1; purchased Life Technologies PV4174; host or cells: baculovirus infected insect cells
# Test Description: CSNK1A1 High ATP Assay (ADP-Glo, 1 mM ATP);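 note: 30 min kinase reaction at 22 °C with 100 µM peptide substrate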
# Assay type: biochemical
# Condition Set: Table 3, read-out: CSNK1A1 high ATP assay IC50 [mol/l] (median)
# Protocol: CSNK1A1-inhibitory activity of compounds of the present invention in presence of 1 mM adenosine-tri-phosphate (ATP) was quantified employing the CSNK1A1-high-ATP-assay as described in the following paragraphs. In essence, the enzyme activity is measured by quantification of the adenosine-di-phosphate (ADP), which is generated as a co-product of the enzyme reaction, via the “ADP-Glo™ Kinase Assay” kit from the company Promega. […]
Below, each of the molecules is paired with its reported IC50 value.
Observed Property: IC50 (nM)

* O=C(Nc1cc(-c2[nH]c3cccnc3c2-c2ccccn2)ccn1)C(CCO)c1ccc(F)cc1 (stereo not shown) | 6.29
* O=C(Nc1cc(-c2[nH]c3nc(OC(F)F)cnc3c2-c2ccccn2)ccn1)C(CC(F)F)c1ccc(F)cc1 (stereo not shown) [Example 105] | 10.9
* O=C(Nc1cc(-c2[nH]c3c(OCC(F)F)ccnc3c2-c2ccccn2)ccn1)C(CC(F)F)c1ccc(F)cc1 (single isomer, unassigned) [Example 77] | 7.2
* O=C(Nc1cc(-c2[nH]c3cc(F)cnc3c2-c2ccccn2)ccn1)C(CO)c1ccc(F)cc1 (racemic) | 8.21

meta.source: patent US12692261B2
